assayText: A CellTox Green Cytotoxicity Assay to monitor cytotoxicity in HEK293 cells - 8 hour (AID 1224884); note: % is set by controls: 0 for no effect and ±100 for the full control effect; nearly all actives have a fitted effect of over 35% in size
experimentalSetup: CellTox Green fluorescence; series mostly up to 76.8 µM
Records with an inconclusive call do not appear. Active and inactive are the calls of the source. Calls come from the whole dose curve; as a rule, active = well fitted activation curve with a large enough effect in the repeat runs; inconclusive = weak or mixed curves; inactive = flat fitted curve, though single readings scatter.
observationType: cytotoxicity increase

Consider the reported cytotoxicity increase for these compounds:
[
  {
    "compound": "C=C(C)C(=O)OC(C)C",
    "cytotoxicity increase": "inactive"
  },
  {
    "compound": "CC(=O)O[C@@H]1C(=O)O[C@@H]2[C@H]1OC(=O)[C@@H]2OC(C)=O",
    "cytotoxicity increase": "inactive"
  },
  {
    "compound": "c1ccc(OCc2ccc(CCCN3CCOCC3)cc2)cc1",
    "cytotoxicity increase": "inactive"
  },
  {
    "compound": "CC1CCc2cc(F)cc3c(=O)c(C(=O)O)cn1c23 (stereo not drawn)",
    "cytotoxicity increase": "inactive"
  }
]

Sample "CC(=O)c1ccc2c(c1)[C@H](NC(=O)c1ccc(F)cc1)[C@@H](O)C(C)(C)O2" — what was its cytotoxicity increase?
inactive

Report cytotoxicity increase for "CCOC(=S)SSC(=S)OCC" please.
inactive

Using the record for "CC(=O)Nc1ccc(/C=N/NC(N)=S)cc1" , report its cytotoxicity increase.
inactive

For the compound shown here, "Cc1cccc(Oc2ccccc2)c1" , give the reported cytotoxicity increase.
inactive

What value of cytotoxicity increase has been recorded for this entry: "CCCCCCCCCCCCCCCC(=O)OC/C=C(C)/C=C/C=C(C)/C=C/C1=C(C)CCCC1(C)C"
inactive

Which cytotoxicity increase is reported for this compound? O=C(CCN1CCN2CCCC2C1)N1c2ccccc2Sc2ccc(Cl)cc21 (stereo not drawn)
-4.39% [at 15.8 µM] (inactive)

Param item = "CC(=O)CC(=O)c1ccccc1" ; retrieve measured cytotoxicity increase.
inactive

Look at this compound and give its reported cytotoxicity increase. "Nc1nc(CC(=O)O)cs1"
inactive

// cytotoxicity increase lookup, key: "CCCCCCCC/C=C\CCCCCCCC(N)=O"
inactive

Which cytotoxicity increase value is on record for "O=C(C(=O)c1ccc(Br)cc1)c1ccc(Br)cc1" ?
6.57% [at 15.8 µM] (inactive)

Reported cytotoxicity increase for "Nc1nc(N)c(-c2ccccc2)s1" : what is it?
inactive

cytotoxicity increase for "CC1(C)[C@H]2CC[C@]1(C)[C@H](O)C2" ?
inactive

----------
assayText: qHTS assay to identify small molecule antagonists of the androgen receptor (AR) signaling pathway using the MDA cell line - cell viability counter screen (AID 743041; note: nearly all actives have a fitted effect of over 45% in size)
experimentalSetup: MDA-kb2 viability, CellTiter-Fluor, 16 h, cells co-treated with R1881 androgen agonist; series mostly up to 70.3 µM
Inconclusive results are not listed. The source made the active and inactive calls. The call rests on the fitted dose curve; in most records, active means well fitted cell-killing curve with a large enough effect in the repeat runs; inconclusive means weak or mixed curves, or effect the other way; inactive means flat fitted curve, though single readings scatter.
Response enum: active, inactive

Returns: the outcome recorded for CCCCCCCCC(CO)CCCCCC (configuration not stated) in this assay.
inactive

Please share the test call associated with "O=[N+]([O-])c1cccc(Cl)c1Cl" .
inactive

Tell me the assay call for CCc1nn(C2CCCCC2)c2cc(C3(C#N)CCC(C(=O)O)CC3)ccc12 (configuration not stated) please.
inactive

Which outcome was entered for the molecule "COc1ccc(OC)c(OC)c1" in this test?
inactive

Please state the recorded outcome for this molecule: "CCN(CC)C(C)=O"
inactive

Record request — test call for "CCCCCCCCCCCCCCCC(=O)OC/C=C(C)/C=C/C=C(C)/C=C/C1=C(C)CCCC1(C)C"
inactive

What did the test return for "Cc1ccc(C(N)=O)cc1N" ?
inactive

Entry "CCCCCCOC(=O)CCC" : call = ?
inactive

Kindly provide the recorded test outcome for the following molecule: CC(=O)/C(C)=C/C1C(C)=CCCC1(C)C (configuration not stated)
inactive

Record lookup: outcome of this test for O=C(c1ccccc1)c1ccc2n1CCC2C(=O)O (configuration not stated) ?
inactive

// outcome(item) with item = "N#Cc1cc2ccccc2c2ccccc12"
inactive

Identify the outcome logged in this assay for the molecule shown: CC1CCc2cc(F)cc3c(=O)c(C(=O)O)cn1c23 (configuration not stated)
inactive

Which result was noted for this molecule in the test: C=CC(=O)OCC(C)OCC(C)OCC(C)OC(=O)C=C (configuration not stated)
inactive

Hi team, can someone confirm the assay call for "C#CCOC(=O)[C@@H](C)Oc1ccc(Oc2ncc(Cl)cc2F)cc1" ?
inactive

Recorded test outcome, item "Cn1c(NCCN(CCO)CCCc2ccc([N+](=O)[O-])cc2)cc(=O)n(C)c1=O"
inactive

# lookup: test call for "Oc1ccc(Sc2ccc(O)cc2)cc1"
inactive

What was the test verdict on "C=C(C)C(=O)OCCN(C)C" ?
inactive

Hello, I am checking results. What call was entered for "SC1CCCC1" ?
inactive

Which outcome was entered for the molecule "COCCCCCCCCOCCC[Si](C)(O[Si](C)(C)C)O[Si](C)(C)C" in this test?
active

Query: recorded result category for "Cc1cccc(C(C)(C)C)c1O" in this test
inactive

Query: recorded result category for "C=CC[N+]1([C@H]2C[C@H]3[C@@H]4CC[C@H]5C[C@H](OC(C)=O)[C@@H](N6CCCCC6)C[C@]5(C)[C@H]4CC[C@]3(C)[C@H]2OC(=O)CC)CCCCC1" in this test
inactive

Which outcome did this test record for the molecule "CC(=O)CC(=O)c1ccccc1" ?
inactive

What was the test verdict on "Cc1ncsc1CCO" ?
inactive

Any idea what this test logged for "CN(C)CCCNCCCN" ?
inactive

Dear all, I need the recorded test outcome for "O=C(O)Cc1sc(-c2ccccc2)nc1-c1ccc(Cl)cc1" , thank you.
inactive

Outcome logged for CCCCOC(=O)c1ccccc1C(=O)OCC(CC)CCCC (configuration not stated) in this assay:
inactive

Just curious, what result did Cc1ccc(C(=O)C(C)CN2CCCCC2)cc1 (configuration not stated) get here?
inactive
